Test system: ATP;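 further: ATP exposure 15 min at 22 °C before imaging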
Test: switch fluorescence ratio, 500 uM ATP over buffer (Cy3 cluster intensity, sum of 5 cycles each) (fold (ratio)); higher = stronger signal-on switching upon ATP binding; sequences stand for … in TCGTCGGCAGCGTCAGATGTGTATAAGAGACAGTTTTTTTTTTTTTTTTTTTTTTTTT…TC
Conditions: aptamer strand: ATP DNA aptamer (quencher-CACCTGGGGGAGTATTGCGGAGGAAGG + anchor), 100 nM annealed; ATP concentration: 500 uM
Assign switch fluorescence ratio to each entry below.
Numbers only.

TGGGTAGGGT	0.991
TTTTGTATTT	0.988
TGGGCTAGAT	0.998

The following sequences each have a reported value; give each one's switch fluorescence ratio.
1. CGTTGTTCGA
2. AAATTCGAAG
3. GGGGCTCTAA
4. TACCTGGTCG
5. TTCGGGGATG
6. TGAAGTTGG
7. AATGAATTGG
8. TGATTGTGGC

Found:
1: 1.02; 2: 0.982; 3: 1.01; 4: 1.03; 5: 0.991; 6: 1.01; 7: 0.969; 8: 0.956

* * *

Tested on: ATP;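 further: ATP exposure 15 min at 22 °C before imaging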
Assay: switch fluorescence ratio, 500 uM ATP over buffer (Cy3 cluster intensity, sum of 5 cycles each) (fold (ratio)); higher = stronger signal-on switching upon ATP binding; sequences stand for … in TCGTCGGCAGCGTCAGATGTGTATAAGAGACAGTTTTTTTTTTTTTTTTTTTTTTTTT…TC
Settings: aptamer strand: ATP DNA aptamer (quencher-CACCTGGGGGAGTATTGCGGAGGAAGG + anchor), 100 nM annealed; ATP concentration: 500 uM
I would appreciate it if you labelled entries 1 when switch fluorescence ratio is 1 or higher, otherwise -1.

GGTTGGTGGG	-1
TCGCTGCTTG	1

Lookup: Threshold query (switch fluorescence ratio >= 1) on "TCGGGGGGGT"
Found: 1

Lookup: Threshold query (switch fluorescence ratio >= 1) on "TAGATTTTGC"
Found: 1

* * *

Tested on: ATP;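 further: ATP exposure 15 min at 22 °C before imaging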
Assay: switch fluorescence ratio, 500 uM ATP over buffer (Cy3 cluster intensity, sum of 5 cycles each) (fold (ratio)); higher = stronger signal-on switching upon ATP binding; sequences stand for … in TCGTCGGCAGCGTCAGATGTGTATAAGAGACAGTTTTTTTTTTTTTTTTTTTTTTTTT…TC
Conditions: aptamer strand: ATP DNA aptamer (quencher-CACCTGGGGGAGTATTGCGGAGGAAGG + anchor), 100 nM annealed; ATP concentration: 500 uM
Quantity Name: switch fluorescence ratio

Some solved cases for reference:
GCTAACGGTT	0.981
GGGGTAATTC	1.06
TCGTAGAGGG	1.01

The following sequences each have a reported value; give each one's switch fluorescence ratio.
1. CGAAAGATGG
2. AAAGGGTTCT
3. AGTGGGGTG
4. AGGGAAATAA
5. AAGAGGCGGG
6. GTGGATATGG
7. CTATTTCGGG

Found:
1
0.994
1.03
0.987
1
0.995
0.979

The following sequences each have a reported value; give each one's switch fluorescence ratio.
1. CAGGGTTGAG
2. CGATTTGTAA
3. AAATGTGCTG

Found:
[0.997, 0.99, 1]

* * *

Test system: ATP;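 further: ATP exposure 15 min at 22 °C before imaging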
Assay: switch fluorescence ratio, 500 uM ATP over buffer (Cy3 cluster intensity, sum of 5 cycles each) (fold (ratio)); higher = stronger signal-on switching upon ATP binding; sequences stand for … in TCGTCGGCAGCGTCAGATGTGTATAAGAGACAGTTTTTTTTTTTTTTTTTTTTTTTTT…TC
Conditions: aptamer strand: ATP DNA aptamer (quencher-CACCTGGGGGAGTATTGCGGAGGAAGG + anchor), 100 nM annealed; ATP concentration: 500 uM
Quantity Name: switch fluorescence ratio
One number for each entry.

TTAGGGCTCA	0.996
TATCTGTTTC	1.01

The following sequences each have a reported value; give each one's switch fluorescence ratio.
1. ATATGTGACT
2. ACACTCGTCT
3. TATGTGATCT
4. CAAGCGTGCG
5. GGGACTTATG
6. TTTTAGGGCA
7. AAAAGGAAT
8. CGGGTTCAT

Found:
[0.977, 1.01, 0.976, 0.98, 1, 1, 1, 1.01]

The following sequences each have a reported value; give each one's switch fluorescence ratio.
1. AAGTGGCTGG
2. TTCGCTCGAG
3. CTGGGAACGA
4. TGTTATTTGT

Found:
1. 0.991
2. 1
3. 0.998
4. 0.975

The following sequences each have a reported value; give each one's switch fluorescence ratio.
1. GTGTTCTCGC
2. TTTTGTGGTC
3. TTTGACGTGC
4. GGGCACTTGT
5. AGGTCGATCC
6. TTTTTAATCT

Found:
1. 0.999
2. 1.02
3. 1.02
4. 1.01
5. 0.993
6. 0.99

* * *

System: ATP;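 further: ATP exposure 15 min at 22 °C before imaging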
Assay: switch fluorescence ratio, 500 uM ATP over buffer (Cy3 cluster intensity, sum of 5 cycles each) (fold (ratio)); higher = stronger signal-on switching upon ATP binding; sequences stand for … in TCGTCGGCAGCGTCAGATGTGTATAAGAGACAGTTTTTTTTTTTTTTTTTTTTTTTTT…TC
Settings: aptamer strand: ATP DNA aptamer (quencher-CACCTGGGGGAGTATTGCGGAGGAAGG + anchor), 100 nM annealed; ATP concentration: 500 uM
Assign switch fluorescence ratio to each entry below.

Some solved cases for reference:
AGCCCGAGGG	0.989
AATACAATGG	1.04
GCCGGGCAAC	0.995
GGTACGGTAA	1.11
AGTTTAAGGA	1.01

Now look at this entry.
Lookup: Kindly indicate its recorded switch fluorescence ratio. Item: "ATAATTTAAT"
Found: 0.999

* * *

System: ATP;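 further: ATP exposure 15 min at 22 °C before imaging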
Experiment: switch fluorescence ratio, 500 uM ATP over buffer (Cy3 cluster intensity, sum of 5 cycles each) (fold (ratio)); higher = stronger signal-on switching upon ATP binding; sequences stand for … in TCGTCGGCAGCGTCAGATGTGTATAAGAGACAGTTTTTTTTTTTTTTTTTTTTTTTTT…TC
Settings: aptamer strand: ATP DNA aptamer (quencher-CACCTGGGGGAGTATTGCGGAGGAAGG + anchor), 100 nM annealed; ATP concentration: 500 uM
Assign switch fluorescence ratio to each entry below.
Numbers only.

Some solved cases for reference:
ACTCGGGACG	0.971
GCGAGCAGTA	1.01
AATGGCATTA	0.984
GAACCGATGT	1.01

The following sequences each have a reported value; give each one's switch fluorescence ratio.
1. TTACTGGTTA
2. GGGCGGTTTG

Found:
1. 1.01
2. 0.971

The following sequences each have a reported value; give each one's switch fluorescence ratio.
1. ACTTCTCTTA
2. TTGCTTTTGT

Found:
1. 1.01
2. 1.02

* * *

Assign switch fluorescence ratio to each entry below.
Tested on: ATP;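 further: ATP exposure 15 min at 22 °C before imaging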
Assay: switch fluorescence ratio, 500 uM ATP over buffer (Cy3 cluster intensity, sum of 5 cycles each) (fold (ratio)); higher = stronger signal-on switching upon ATP binding; sequences stand for … in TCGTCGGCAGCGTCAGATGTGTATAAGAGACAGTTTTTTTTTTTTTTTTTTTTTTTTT…TC
Settings: aptamer strand: ATP DNA aptamer (quencher-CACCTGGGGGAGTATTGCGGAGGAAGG + anchor), 100 nM annealed; ATP concentration: 500 uM
One number for each entry.

GAACGCGATT	3.92
TCTACTGGGT	0.993
CGGAGTTGGA	1.04

The following sequences each have a reported value; give each one's switch fluorescence ratio.
1. ACAAGGTGAT
2. TTAGTAGAAC
3. ATTGTCTGAG

Found:
[1.15, 0.993, 1.01]

* * *

System: ATP;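 further: ATP exposure 15 min at 22 °C before imaging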
Assay: switch fluorescence ratio, 500 uM ATP over buffer (Cy3 cluster intensity, sum of 5 cycles each) (fold (ratio)); higher = stronger signal-on switching upon ATP binding; sequences stand for … in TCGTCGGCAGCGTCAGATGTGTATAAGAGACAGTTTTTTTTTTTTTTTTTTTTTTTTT…TC
Details: aptamer strand: ATP DNA aptamer (quencher-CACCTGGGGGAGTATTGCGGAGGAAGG + anchor), 100 nM annealed; ATP concentration: 500 uM
Quantity Name: switch fluorescence ratio

ATTATGTCAG	0.991
CACAATCGGG	1

Now look at this entry.
Lookup: Kindly indicate its recorded switch fluorescence ratio. Item: "GAAGATTATA"
Found: 0.986

* * *

Tested on: ATP;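 further: ATP exposure 15 min at 22 °C before imaging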
Test: switch fluorescence ratio, 500 uM ATP over buffer (Cy3 cluster intensity, sum of 5 cycles each) (fold (ratio)); higher = stronger signal-on switching upon ATP binding; sequences stand for … in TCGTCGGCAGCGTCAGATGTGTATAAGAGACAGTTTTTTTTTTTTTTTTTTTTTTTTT…TC
Conditions: aptamer strand: ATP DNA aptamer (quencher-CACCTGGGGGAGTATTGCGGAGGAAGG + anchor), 100 nM annealed; ATP concentration: 500 uM
I would appreciate it if you labelled entries Y when switch fluorescence ratio is 1 or higher, otherwise N.

As a guide, the following entries are already answered.
GGAATGCGCA	Y
TATTTACTCG	Y
TTTTGAGACG	Y
GACCTATATT	Y
GGTTGAGCTG	N

Lookup: Threshold query (switch fluorescence ratio >= 1) on "GATTAGGTGT"
Found: Y
